Every entry's value here was drawn from PubChem BioAssay (NCI).

Test system: SN12C renal
Experiment: NCI tumour cell line growth inhibition, 48 h
value.type: GI50

Guide cases for GI50, answers given:
compound	GI50
Cc1ccc2c(c1)n([O-])c(C(F)(F)F)c(C(=O)c1ccco1)[n+]2=O	0.833 µM
COc1ccc(N2CCN(c3nc(-c4ccccn4)nc4sc5c(c34)CCCCCC5)CC2)cc1	5.99 µM
CCN(Cc1c(F)cccc1C(F)(F)F)c1ccc(CO)c(Cl)c1	13 µM
CCN1C(=O)N(CC)C2C1NN=c1s/c(=C\c3ccc(Br)cc3)c(=O)n12 (stereo not given)	0.512 µM
Nc1ncnc2c1ncn2Cc1ccc(CCl)cc1	21.2 µM
COc1cccc(/C=C/C(=O)c2cc3c(N)c(C(=O)Nc4ccccc4)sc3nc2C)c1	1.12 µM

Reported GI50 ( `O=C(O)[C@@H](Cc1ccccc1)NS(=O)(=O)c1ccc(-c2ccccc2)cc1` ) = > 100 µM

Lab note: measured GI50 of `Cc1cccc(Nc2ncc(-c3ccccc3)o2)c1` was > 25 µM

----------
System: RPMI-8226 leukemia
Assay: NCI tumour cell line growth inhibition, 48 h
value.type: TGI

Solved cases (5 shown):
compound	TGI
COc1cc(-c2cc(-c3ccc(Nc4nc(Nc5ccc(Cl)cc5)nc(Nc5ccc(Cl)cc5)n4)cc3)no2)cc(OC)c1OC	> 100 µM
C=C1[C@H](O)C[C@@H](C(C)C(O)CC=C(C)C)[C@@H](O)[C@@H]2C(C)=CC[C@@H]12 (stereo partly specified)	> 100 µM
CN1C(=O)c2c(c3c4ccccc4n(C)c3c3c2c2ccccc2n3C)C1=O	> 100 µM
COc1ccc(/C=N/NC(=O)NCCNCCO)cc1	> 100 µM
O=C(Nc1ccc(-c2cn3ccccc3n2)cc1)c1cc(Br)ccc1O	> 100 µM

We now examine a further compound.
The value of TGI measured for the compound C#CCN1C(=O)CN2C(Cl)(Cl)C2(c2ccccc2)c2cc(Cl)ccc21 (stereo unspecified) turned out to be > 100 µM

----------
Listed here are compounds together with their documented TGI.
Tested on: OVCAR-3 ovarian
Experiment: NCI tumour cell line growth inhibition, 48 h
State just the number; it will be interpreted in µM.

Known results for compounds:
compound	units.text	TGI
C=C1CC2(CC(c3ccccc3C)OC(c3ccccc3C)C2)OC1=O (centres undefined)	µM	3.58
Nc1nc(N)c2c(n1)NC(c1ccc(Cl)cc1)C1CCc3ccccc3C1=N2 (centres undefined)	µM	19
COC1C[C@H](O[C@@H]2C[C@H](O[C@@H]3C[C@H](O[C@@H]4C(=O)c5c(cc6cc(O[C@H]7C[C@@H](O[C@H]8C[C@@H](O)[C@H](O)C(C)O8)[C@H](O)C(C)O7)c(C)c(O)c6c5O)C[C@H]4C(OC)C(=O)[C@@H](O)[C@@H](C)O)OC(C)[C@H]3O)OC(C)[C@@H]2O)OC(C)[C@@H]1O (some centres undefined)	µM	0.773

Query `Fc1ccc(Nc2ccnc(N3CCN(c4ccnc5cc(Cl)ccc45)CC3)n2)cc1` on OVCAR-3 ovarian; TGI returned: 7.38

Summary: `CC(C)(C)c1ccc(OCCOc2ccc(C(C)(C)C)cc2NC=O)c(NC=O)c1` , OVCAR-3 ovarian, TGI = 36.5

Measured on OVCAR-3 ovarian, `CCN(Cc1c(F)cccc1C(F)(F)F)c1ccc(CO)c(Cl)c1` has a documented TGI of 4.9

----------
Test system: HCC-2998 colon
Assay: NCI tumour cell line growth inhibition, 48 h; in the data active means GI50 below about 0.43 µM; inactive means the rest
A correct response names exactly one class from true (1) for active, false (0) for inactive

compound	category
CC1(/C=C/c2ccc(-c3ccccc3)cc2)CCn2cnc3ncnc(c32)N1O (stereo not given)	true (1)

Name the outcome recorded for `COc1cc(N2CCN(C(C)C)CC2)ccc1Nc1nc(Nc2ccc(F)cc2C(N)=O)c2cc[nH]c2n1` in the assay.
false (0)

What did this assay record as the result for Cc1cc(C2CC(O)C(CO)O2)c(Br)cc1Br (stereo not given) ?
false (0)

Identify the outcome logged in this assay for the compound shown: `COc1cc2cc(C(=O)Nc3ccccc3)c(N)nc2cc1OC`
false (0)

Identify the outcome logged in this assay for the compound shown: `CCN(Cc1c(F)cccc1C(F)(F)F)c1ccc(CO)c(Cl)c1`
false (0)

----------
Below, each entry is listed alongside its reported TGI.
Test system: HL-60(TB) leukemia
Assay: NCI tumour cell line growth inhibition, 48 h
Return type: number; implicit unit µM.

The following compounds have reported results that may help.
compound	value.type	observed.measurement
C[C@H]1O[C@@H](O[C@H]2[C@@H](O)C[C@H](O[C@H]3[C@@H](O)C[C@H](O[C@H]4CC[C@]5(C)C6CC[C@]7(C)[C@@H](C8=CC(=O)OC8)CC[C@]7(O)C6CC[C@@H]5C4)O[C@@H]3C)O[C@@H]2C)C[C@H](O)[C@@H]1O (stereo not given in full)	TGI	0.0261
C=c1c2ccccc2oc2nc3[nH]c(N)c(C#N)c(N)c3c(=N)c12	TGI	90.3
CCN(Cc1c(F)cccc1C(F)(F)F)c1ccc(CO)c(Cl)c1	TGI	36.9

Sample `O=C(Nc1n[nH]c2cc(-c3ccc(F)cc3)ccc12)C1CC1` ; TGI observed: 22.3

The value of TGI measured for the compound `CS(=O)(=O)Nc1cc(-c2ccc3ncnc(Nc4ccc(OCc5ccccn5)c(Cl)c4)c3c2)cnc1Cl` turned out to be 2.72

For record `O=c1oc2c(Cl)cc(Cl)cc2cc1-c1cn2c(n1)sc1ccccc12` the listed TGI is 66.9

Consider `Cc1ccnc2[nH]c(-c3ccc(Cl)cc3)cc(=O)c12` . Its measured TGI is 4.74

Reported TGI for `C=C1C(=O)O[C@H]2[C@H]1CC/C(COC(=O)NCCc1ccc(Br)cc1)=C\CC[C@@]1(C)O[C@@H]21` was 3.97

----------
Collected TGI values appear next to each entry.
System: NCI-H226 lung
Assay: NCI tumour cell line growth inhibition, 48 h

compound	observed.measurement
Cc1ccc(O)c(C(=O)/C=C/c2ccccc2)c1	> 100 µM

`Cc1ccc2c(c1)n([O-])c(C(F)(F)F)c(C(=O)c1ccco1)[n+]2=O` tested on NCI-H226 lung gave TGI: 2.09 µM

----------
Tested on: PC-3 prostate
Assay: NCI tumour cell line growth inhibition, 48 h; in the data active means GI50 below about 0.43 µM; inactive means the rest
Please state which outcome applies, choosing from active, inactive

Field: example entries. Status: answers known.
compound	category
COc1cc2cc(C(=O)Nc3ccccc3)c(N)nc2cc1OC	inactive
COC1C[C@H](O[C@@H]2C[C@H](O[C@@H]3C[C@H](O[C@@H]4C(=O)c5c(cc6cc(O[C@H]7C[C@@H](O[C@H]8C[C@@H](O)[C@H](O)C(C)O8)[C@H](O)C(C)O7)c(C)c(O)c6c5O)C[C@H]4C(OC)C(=O)[C@@H](O)[C@@H](C)O)OC(C)[C@H]3O)OC(C)[C@@H]2O)OC(C)[C@@H]1O (stereo partly drawn)	active

What classification did `Cc1ccc2c(c1)n([O-])c(C(F)(F)F)c(C(=O)c1ccco1)[n+]2=O` end up with in this test?
active

I would be grateful if you could indicate the recorded call for `CN1CCN(CCCn2c3c(sc4ncccc43)c(=O)n3nnc(-c4ccccc4)c23)CC1` .
inactive

----------
Reported GI50 by item:
System: SW-620 colon
Test: NCI tumour cell line growth inhibition, 48 h

compound	GI50
COc1ccc(C2CC(=O)Nc3c2c(C)nn3-c2nc3ccccc3[nH]2)cc1OC (stereo unspecified)	4.86 µM
[N-]=[N+]=NCCCn1c2c(c3ccccc3c1=O)C(=O)c1cc3c(cc1-2)OCO3	> 100 µM
CCCCCCCC(=O)[O-].N.N.N.N.N.[Co+3].[O-][Cl+3]([O-])([O-])[O-]	> 100 µM

Record for `Nc1ncnc2c1ncn2Cc1ccc(CCl)cc1` under target or system SW-620 colon: GI50 reported as 12.8 µM

Field GI50 (system: SW-620 colon) for entry `C=C1C(=O)O[C@H]2[C@H]1CC/C(COC(=O)NCCc1ccc(Br)cc1)=C\CC[C@@]1(C)O[C@@H]21` = 0.711 µM

Measured on SW-620 colon, `Clc1ccc(Nc2nnc(COc3ccccc3)c3ccccc23)cc1` has a documented GI50 of 2.86 µM

----------
The entries below are paired with their reported TGI.
System: HCT-116 colon
Experiment: NCI tumour cell line growth inhibition, 48 h

Example results:
compound	TGI
CCN(CC)CCNC(=O)C1COc2ccc(-c3cc(=O)c4ccccc4o3)cc2O1 (centres undefined)	32.7 µM
O=C1/C(=C/c2ccc(C(=O)O)cc2)CNC/C1=C\c1ccc(C(=O)O)cc1	> 100 µM
CC(C)c1cccc(C(C)C)c1NC(=O)/C(Cc1nc2ccc(Cl)cc2[nH]c1=O)=N\NC(=O)C[N+](C)(C)C	> 100 µM
Cc1c(-c2c(F)cc(C(N)=O)c3[nH]c4c(c23)CC[C@H](C(C)(C)O)C4)cccc1-n1c(=O)c2cccc(F)c2n(C)c1=O	> 100 µM
Nc1[nH]c(=S)[nH]c(=O)c1N=Nc1c(Br)cc(S(N)(=O)=O)cc1Br	> 100 µM

Consider now this further compound.
Short answer for CC(=O)O[C@H]1C(=O)[C@@]2(C)C(C(OC(=O)c3ccccc3)[C@]3(O)CC(OC(=O)C(O)C(NC(=O)c4cccc(Cl)c4)c4ccccc4)C(C)=C1C3(C)C)[C@]1(OC(C)=O)CO[C@@H]1C[C@@H]2O (some centres undefined) : TGI was 5.12 µM
